Numbers sourced from patent US10759785B2.

Catalogue of half-life at 1 μM values
Assay: Hepatic stability (rat cryopreserved hepatocytes)
Type: in vitro ADME
Conditions: pH 7.4, 1 μM test compound, 1×10^6 cells/mL, 37° C., read-out: Averages. Hep Half Life Rat
Protocol: Example 29—Hepatic Stability Cryopreserved hepatocytes (rat and human) were obtained from Bioreclamation. Test compound stock solutions in DMSO (10 mM) were diluted with DMSO to 4 mM. Further dilution was completed to achieve a 100 μM stock (5 μL of 4 mM in 195 μL of 50:50 DMSO:hepatocyte buffer). […] Supernatant fraction was removed, cells were re-suspended in hepatocyte buffer and counted by trypan blue exclusion. […] Samples were diluted 1:1 with water using the Janus Robot and analysed by LC-MS/MS.
Where a name gives a salt, the structure may show the parent alone.
Report as a plain number; the unit min is understood.

Please review the entries below; each comes with its answer.
Entry CCn1c(CNC(=O)c2nc(Br)cnc2N)[n+](CC)c2ccc(OC)cc21.O=C[O-] : reported half-life at 1 μM = ?
5

Entry CCn1c(CNC(=O)c2nc(C)cnc2N)[n+](C)c2ccc(OC)cc21.[I-] : reported half-life at 1 μM = ?
16

Entry CCn1c(CNC(=O)c2nc(Br)cnc2N)[n+](C)c2ccc(OC(F)(F)F)cc21.O=C[O-] : reported half-life at 1 μM = ?
28

Entry CCn1c(CNC(=O)c2nc(Br)cnc2N)[n+](CCOCCOCCO)c2ccc(OC)cc21.O=C[O-] : reported half-life at 1 μM = ?
16

New cases:
Entry CCn1c(CNC(=O)c2nc(Br)cnc2N)[n+](C)c2ccc(OC)cc21.[I-] : reported half-life at 1 μM = ?
6

Entry CCn1c(CNC(=O)c2nc(Br)cnc2N)[n+](CC)c2ccc(-c3cnn(C4CCNCC4)c3)cc21.Cl.[I-] : reported half-life at 1 μM = ?
25

Entry CCn1c(CNC(=O)c2nc(Br)cnc2N)[n+](CC)c2ccc(C(=O)N[C@H]3CCOC3=O)cc21 [Example 18, formate] : reported half-life at 1 μM = ?
46
